Experiment: in vivo
Design: species or system mice
Conditions: mouse, ip, 300 mg/kg
Method: Plasma uridine levels were determined in mice at various times (15 minutes, 30 minutes, 1 hour, and 2 hours) after administration of the acyl derivatives of uridine utilized in Example 3 for attenuation of toxicity caused by 5-FU. […] The supernatant was lyophilized and reconstituted with 50 mM potassium phosphate buffer, pH 6.0, and analyzed for uridine content by HPLC on a reverse phase (C18) column. […] Uridine was detected and quantified by UV absorbance at 260 nm.
propertyMeasured: concentration at 15 min (µM)
Express your answer in µM, writing the number without its unit.

INPUT: # lookup: concentration at 15 min of O=c1ccn([C@@H]2O[C@H](CO)[C@@H](O)[C@H]2O)c(=O)[nH]1
OUTPUT: 911
